- Test system: LOC_OS02G07810-cb001;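 further: purified Escherichia coli-expressed rice kinase domain construct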
- Procedure summary: thermal shift delta Tm vs DMSO control; higher = stronger stabilization (binding)
- Condition info: 12.5 µM; protein concentration 2 µM
Structures can show the parent of a compound that is named as a salt.
Our labelling divides records by thermal shift delta Tm into ranges: A = under 0.4 °C, B = from 0.4 °C up to 0.8 °C, C = 0.8 °C and over

Compound	Category label
COc1ccc(-c2ccc3c(N4CCOC[C@@H]4C)nc(N4CCOC[C@@H]4C)nc3n2)cc1CO	A
COc1cc2ncnc(Sc3nnc(C)s3)c2cc1OC	A
Cn1cnc(N)c2ncnc1-2	C
CC#CC(=O)N1CC[C@@H](n2c(=O)n(-c3ccc(Oc4ccccc4)cc3)c3c(N)ncnc32)C1 [ONO-4059 (GS-4059) hydrochloride]	A
O=c1c(O)c(-c2ccc(O)c(O)c2)oc2cc(O)cc(O)c12	C
CC(=O)c1c(C)c2cnc(Nc3ccc(N4CCNCC4)cn3)nc2n(C2CCCC2)c1=O	A
C[C@@]1(C(=O)Nc2ccc(F)nc2)CCCN1c1nc(Nc2cc(C3CC3)n[nH]2)c2cccn2n1	C
Cc1ccccc1CN1C2=NCCN2C(=O)C2=C1CCN(Cc1ccccc1)C2	C
CO[C@@H](C(=O)N1Cc2[nH]nc(NC(=O)c3ccc(N4CCN(C)CC4)cc3)c2C1)c1ccccc1	B
CCN1C(=O)CNc2ncc(-c3ccc(-c4nc[nH]n4)nc3C)nc21	B
